Data origin, for the record: PubChem BioAssay AID1508591

conditions: rat; liver microsomes; pH 7.4; 15.0 min; 1.0 µM

{"columns": ["structure notation", "relation symbol", "half-life / min"],
 "data": [
  ["O=C1c2ccccc2-n2c1nc1ccccc1c2=O", "=", 21.3],
  ["Cc1ccc(OCCn2c(CCNC(=O)c3ccccc3Br)nc3ccccc32)cc1", "=", 1.6],
  ["COc1ccc(NC(=O)c2cccnc2C)cc1S(=O)(=O)Nc1ccc(Br)cc1", "=", 11],
  ["OC1(c2ccc(Cl)cc2)CCN(Cc2c[nH]c3ccccc23)CC1", "=", 3.89],
  ["CCn1nc(C2CCN(C(=O)CCO)CC2)nc1-c1cnc(N)c(-c2nnc(C(C)(C)C)o2)n1", ">", 30]
]}

###

settings: rat; liver microsomes; pH 7.4; 15.0 min; 1.0 µM
# half-life values compiled below

{"columns": ["compound", "relation symbol", "half-life / min"],
 "data": [
  ["COc1ccc(-c2ccc3c(N4CCOC[C@@H]4C)nc(N4CCOC[C@@H]4C)nc3n2)cc1CO", ">", 30],
  ["COc1ccccc1C(=O)N1CCc2cc(-c3nc(NC(=O)Cc4ccc5c(c4)OCO5)sc3C)ccc21", "=", 9.6],
  ["C#Cc1ccc(NC(=O)c2cnn3c(C)cc(C)nc23)cc1", "=", 25.5],
  ["Cc1cc(Nc2nc(-c3ccncc3)nc3ccccc23)n[nH]1", "=", 7.3],
  ["CCOC(=O)C1CCN(c2ncc(-c3ccc4c(c3)OCCCO4)s2)CC1", "=", 2.37],
  ["CC(=O)N1CCc2cc(-c3nc(NC(=O)Cc4ccc5c(c4)OCO5)sc3C)ccc21", "=", 20],
  ["O=C(Nc1ccc2c(N3CCOCC3)ncnc2c1)c1cccc(Br)c1", "=", 10.1],
  ["CCS(=O)(=O)c1ncc(N(Cc2ccc(F)cc2)Cc2ccco2)c(C(=O)Nc2cc(C)ccc2C)n1", "=", 3.51],
  ["COc1cccc(CNc2ccc(S(=O)(=O)Nc3cccc4ccccc34)cc2)c1O", "=", 5.8],
  ["CCCN1CNc2c(c(=O)[nH]c(=S)n2Cc2ccc(OC)c(OC)c2)C1", ">", 30],
  ["Cc1ccc(-c2cc(C(=O)Nc3ccc(-n4cccn4)cc3)c3ccccc3n2)cc1C", "=", 9.1],
  ["Cc1nc2nc(NC(=O)c3ccc(C(C)(C)C)cc3)[nH]n2c(=O)c1Cl", "=", 21],
  ["COc1ccc(Cl)cc1C(=O)Nc1ccc(NC(=O)c2ccco2)cc1", ">", 30],
  ["Cc1ccc(S(=O)(=O)NCc2ccccc2)cc1", "=", 1],
  ["CC1=Nc2cc(C(=O)NCc3ccccc3Cl)ccc2Sc2c(C)ccc(C)c21", "=", 1.96],
  ["O=C1CCCC2=C1C(c1[nH]ncc1Cl)N=C(Nc1nc3c(Br)cccc3o1)N2 (stereo unspecified)", "=", 3.2],
  ["COc1ccc(/C=C2/C(=O)Nc3ccccc32)cc1O", ">", 30],
  ["Oc1ccc(CNc2ccccc2Br)c2cccnc12", "=", 4.46],
  ["CCOC(=O)N1CCN(Cc2nc3cc(NC(=O)c4ccc(OC)cc4)ccc3n2C(C)C)CC1", "=", 26],
  ["Cc1cc(C)c(C(=O)Nc2cccc([S+](=O)([O-])N3CCCCCC3)c2)[nH]1", "=", 1.7],
  ["NC(=O)C1CCN(c2nc(-c3ccccc3)cs2)CC1", "=", 3.88]
]}

###

details: rat; liver microsomes; pH 7.4; 15.0 min; 1.0 µM
Checkbox rule: half-life lower than 8 min = rule met; half-life not lower than 8 min = rule not met.

{"columns": ["compound", "group"],
 "data": [
  ["COc1ccc(-n2c(C)cc(-c3nnc4n3CCCCC4)c2C)cc1", "rule met"],
  ["Brc1ccccc1-c1nc(NCc2ccc(-c3cccnc3)cc2)c2ccccc2n1", "rule met"],
  ["O=C(O)c1cccc(-n2cccc2/C=C2/NC(=O)N(c3cccc(Cl)c3)C2=O)c1", "rule not met"],
  ["CSc1nn(Cc2cccc(C)c2)c(N)c1S(=O)(=O)c1ccccc1", "rule met"],
  ["Cc1ccc(/C=C/c2nc3ccccc3n2S(=O)(=O)c2cccc(Cl)c2)cc1", "rule not met"],
  ["O=C(c1ccc2c(c1)ncn2-c1ccccc1)N1CCCCC1", "rule not met"],
  ["Cc1cccc(-c2csc(N3CCC(C(N)=O)CC3)n2)c1", "rule met"],
  ["Cc1cccc(-n2cnc3cc(C(=O)N4CCCCC4)ccc32)c1", "rule met"],
  ["C=Cc1ccc(Cn2c(C(=O)O)c(CNC3CCCCC3)c3ccc(OC)cc32)cc1", "rule met"],
  ["Cc1ccc([S+](=O)([O-])n2cc(-c3ccc(-c4ccccc4)cc3)c3ccccc32)cc1", "rule not met"],
  ["COc1ccc(C(=O)Nc2nc(-c3ccccc3)cs2)c(OC)c1", "rule not met"],
  ["O=C(Nc1nnc(C2CCCCC2)s1)c1ccc(Br)s1", "rule not met"],
  ["Cn1cc(-c2nc(Nc3ccc(F)c(F)c3)c3ccccc3n2)cn1", "rule not met"],
  ["CCOC(=O)c1ccc(N2C(=O)c3n[nH]c(-c4cccs4)c3C2c2ccc(OCC)cc2)cc1 (stereo unspecified)", "rule met"],
  ["Cc1ccc(NC2=C(c3ccc(C(F)(F)F)cc3)C(=O)c3ccccc32)cc1F", "rule not met"],
  ["Cc1ccc(-c2cc(C(=O)Nc3ccc(S(C)(=O)=O)cc3)c3ccccc3n2)cc1C", "rule not met"],
  ["COc1cccc(CN(C)c2ccc([S+](=O)([O-])Nc3nccs3)cc2)c1O", "rule not met"],
  ["CC(=O)c1c(C)oc2ccc(N(C(=O)Oc3ccccc3)S(=O)(=O)c3ccccc3)cc12", "rule met"],
  ["CC(C)(C)OC(=O)N[C@@H](Cc1ccc(O[S+](=O)([O-])c2cccc3cnccc23)cc1)C(=O)Nc1ccc(-c2ccccc2)cc1", "rule met"],
  ["Cc1c(-c2nsc(NC(=O)c3cccc(Cl)c3)n2)nnn1-c1ccccc1C(F)(F)F", "rule not met"]
]}

###

# log10 half-life per entry
conditions: rat; liver microsomes; pH 7.4; 15.0 min; 1.0 µM
quantity kind: log10 half-life (log10 of the value in min)

{"columns": ["compound", "recorded number"],
 "data": [
  ["COC(=O)CNC(=O)c1nc(-c2ccc(F)cc2)c2ccccn12", -0.04],
  ["NC(=O)C1CCN(c2nnc(-c3ccc(Br)cc3)s2)CC1", 0.90],
  ["O=C(NC1CCCc2c1cnn2-c1cccc(O)c1)c1ccccn1 (stereo unspecified)", 1.08],
  ["Cc1ccc(C)c(SC2=NS(=O)(=O)c3ccccc32)c1", 0.08],
  ["Cc1ccc(S(=O)(=O)Nc2cnccc2C(=O)Nc2nc(-c3ccco3)cs2)cc1", 0.28],
  ["COc1cccc(CNc2ccc(S(=O)(=O)Nc3ccccc3)cc2)c1O", 0.83],
  ["Fc1ccc(Nc2nc(-c3ccncc3)cc3ccccc23)cc1F", 1.38],
  ["Cn1nnnc1SCCCNCc1cccc(OCc2ccccc2Cl)c1", 0.24],
  ["Cc1c(Cl)cccc1-n1ncc(C(=O)Nc2ccc(Br)cc2F)c1C1CCNCC1", 0.99],
  ["O=C(Nc1nnc(-c2ccco2)o1)c1ccc(Cl)cc1", 1.03]
]}

###

conditions: rat; liver microsomes; pH 7.4; 15.0 min; 1.0 µM
# binarize half-life: threshold 10 min inclusive, high side condition met, low side condition not met

{"columns": ["compound", "group"],
 "data": [
  ["Cc1ccc(NS(=O)(=O)c2cccc(C(=O)Nc3nc(-c4ccccc4)cs3)c2)cc1", "condition not met"],
  ["CCn1cc(C(=O)O)c(=O)c2cnc(N3CCN(C(=S)Nc4ccccc4)CC3)nc21", "condition met"],
  ["CCCNc1oc(-c2cccc3ccccc23)nc1C#N", "condition met"],
  ["CC(C)(C)c1ccc(SC2=NS(=O)(=O)c3ccccc32)cc1", "condition not met"],
  ["CC1CCCCN1c1ncnc(N)c1[N+](=O)[O-] (stereo unspecified)", "condition met"]
]}

###

The entries below come with measured half-life values attached.
conditions: rat; liver microsomes; pH 7.4; 15.0 min; 1.0 µM
quantity kind: half-life (min)

{"columns": ["structure notation", "quantity kind", "readout unit", "relation symbol", "recorded number"],
 "data": [
  ["Cc1ccc(-c2cc(C(=O)Nc3ccc(S(=O)(=O)NCc4nccs4)cc3)c3ccccc3n2)cc1C", "half-life", "min", "=", 5.8],
  ["CCOc1ccc(CCNC(=O)c2cc3c(s2)CCC3)cc1OCC", "half-life", "min", "=", 1.6],
  ["FC(F)(F)c1ccccc1-c1nc(NCc2cccc3ccccc23)c2ccccc2n1", "half-life", "min", "=", 4.33],
  ["CCc1ccc(C(=O)Nc2cc(CN3CCN(C)CC3)cc(C(F)(F)F)c2)cc1C#Cc1cnc2ccnn2c1", "half-life", "min", ">", 30],
  ["COC(=O)CNC(=O)c1nc(-c2ccc(Cl)cc2Cl)c2cnccn12", "half-life", "min", "=", 3.71],
  ["O=C(Nc1ncc(Cc2ccc(C(F)(F)F)cc2)s1)c1ccc(-c2ccccc2)o1", "half-life", "min", ">", 30],
  ["Cc1ccc(-c2ccnc(N3CCC(C(N)=O)CC3)n2)cc1", "half-life", "min", "=", 2.35],
  ["CCOc1ccc(-c2nc(SCC(=O)Nc3ccc(C)c(C)c3)n3[nH]c(=O)cc3n2)cc1", "half-life", "min", "=", 19.9],
  ["Cc1cccc(C)c1Nc1c(-c2ccccn2)nc2ccc(Cl)cn12", "half-life", "min", "=", 1.86],
  ["Cc1ccc(-c2cc(C(=O)NCc3cnn(C)c3C)c3cc(Br)ccc3n2)cc1", "half-life", "min", "=", 12],
  ["COc1cc2c3cc1Oc1c(O)c(OC)cc4c1[C@@H](Cc1ccc(cc1)Oc1cc(ccc1O)C[C@H]3N(C)CC2)N(C)CC4", "half-life", "min", "=", 29.8],
  ["Cc1ccc(S(=O)(=O)n2cc(C(=O)Nc3ccc(-c4ccccc4)cc3)c3ccccc32)cc1", "half-life", "min", "=", 14],
  ["CC(C)c1ccc(Nc2c(-c3ccccn3)nc3ccccn23)cc1", "half-life", "min", "=", 2.1],
  ["N#Cc1ccc(-c2csc(N3CCC(C(N)=O)CC3)n2)cc1", "half-life", "min", "=", 16.2],
  ["Nc1nc(Nc2ccc(S(N)(=O)=O)cc2)n(C(=S)Nc2c(F)cccc2F)n1", "half-life", "min", ">", 30],
  ["C[C@@H]1CC(=O)Nc2cccc(-c3cnn(C(C)(C)C)c3)c2N1", "half-life", "min", ">", 30],
  ["O=C(Cc1ccc(Cl)c(Cl)c1)Nc1ccc(S(=O)(=O)Nc2ccccc2)cc1", "half-life", "min", "=", 4.2],
  ["Cc1cn2c(N)c(Cl)cc(C(=O)NCC3CCN(CC(C)C)CC3)c2n1", "half-life", "min", ">", 30],
  ["CC#CC(=O)N1CCC[C@H]1c1nc(-c2ccc(C(=O)Nc3ccccn3)cc2)c2c(N)nccn12", "half-life", "min", "=", 19.4],
  ["Cc1ccccc1-c1nc(NCc2cccs2)c2ccccc2n1", "half-life", "min", "=", 2.74]
]}
